// data source = ChEMBL document CHEMBL1201862

Test system: DU-145
Assay: NCI tumour cell line growth inhibition, 48 h
Calls of active or inactive are those of the source. Rule as the data show it: active = GI50 up to about 1.1 µM and inactive = higher.
Select the correct class. Options are active, inactive and nothing else.

Task: GET /call?item= `COC(=O)/C=C1/OC(c2ccccc2)=C(Cl)C1=O` returns the recorded outcome of this test.
Output: inactive

Task: In this assay, the call recorded for `CC(C)=CCC[C@@H](C)C1=C(O)C(=O)C(C)=C(N)C1=O` was what?
Output: inactive

Task: Given CC12CCC(=O)[C@@]1(C)CCCC2=O (stereo partly specified) , state the outcome it received in this test.
Output: inactive

Task: Could you kindly confirm the outcome this assay logged for COC(=O)C1=C(O)C(C(=O)OC)[C@@]2(O)[C@@H](C(=O)OC)[C@H](C)C[C@@H]1[C@@H]2C(=O)OC (stereo partly specified) ?
Output: inactive

Task: Please share the test call associated with COC(=O)C1(NC(=O)C(N)CC(=O)O)C(C)C1C (stereo unspecified) .
Output: inactive

Task: GET /call?item= `Cc1ccc([N+](=O)[O-])cc1NC1=NCCO1` returns the recorded outcome of this test.
Output: inactive

Task: Hey, what did the test say about `Cc1ccc2c3c(cnc2n1)C(=O)OCCN3C` ?
Output: inactive

Task: Hello, I am checking results. What call was entered for `CC(=O)O[C@H]1C(=O)[C@@]2(C)[C@H]([C@H](OC(=O)c3ccccc3)[C@]3(O)C[C@H](OC(=O)[C@H](O)[C@@H](NC(=O)c4ccc(N(C)C)cc4)c4ccccc4)C(C)=C1C3(C)C)[C@]1(OC(C)=O)CO[C@@H]1C[C@@H]2O` ?
Output: active

Task: Can you look up the reported call for `CN(C)c1ccc(/C=C(\NC(=O)c2ccccc2)c2nc3ccccc3c(=O)o2)cc1` for me?
Output: inactive

Task: Could you please tell me the result logged for COc1ccc(N[C@H](C[S+]([O-])c2ccc(C)cc2)C(F)(F)C(F)(F)F)cc1 (stereo partly specified) in this assay?
Output: inactive

Task: For `O=C(/C=C/c1cccs1)c1ccccc1Cl` , what call appears in the results of this test?
Output: inactive

Task: Recorded call for O=C(O)C1OC1(c1cccc(Cl)c1)c1ccccc1Cl (stereo unspecified) ?
Output: inactive

Task: Could you kindly confirm the outcome this assay logged for `O=C1c2cc3c(cc2CC12Cc1cc4c(cc1C2=O)CCCC4)CCCC3` ?
Output: inactive

Task: Call for entry N#CC1=C(N)N(/N=C/c2ccco2)C(c2ccco2)C1(C#N)C#N (stereo unspecified) :
Output: inactive

Task: Hi, sorry to bother you, what did the test record for `CC1(C)CC[C@]2(C)[C@@H](O)C[C@]3(C)C(=CC[C@@H]4[C@@]5(C)CC[C@H](O)C(C)(C)[C@@H]5CC[C@]43C)[C@@H]2C1` ?
Output: inactive

Task: Assay result, entry `CN(C)CCNC(=O)c1cccc(CO)c1[N+](=O)[O-]` — outcome?
Output: inactive

---

Test system: DMS-273
Test: NCI tumour cell line growth inhibition, 48 h
The source made the active and inactive calls. Cut-off read from the data, not from the text of the source: active = GI50 up to about 1.1 µM and inactive = higher.
For each record, write down the corresponding GI50.

Task: May I ask what GI50 has been recorded for `Cc1cc(Br)ccc1/N=N/c1c(C)nn(-c2ccccc2)c1-c1ccccc1` ?
Output: 34.3 µM (inactive)

Task: State the recorded GI50 for this entry: `O=C1C(=O)N(C(=O)c2ccc(Cl)c(Cl)c2)c2ccccc21`
Output: > 100 µM (inactive)

Task: What does the data say about its GI50? Entry: `Nc1nc2c3nc(Nc4ccccc4)sc3nc(=O)n2c2sc(Nc3ccccc3)nc12`
Output: > 100 µM (inactive)

Task: May I ask what GI50 has been recorded for O=C1OC(Cl)C(N=P(c2ccccc2)(c2ccccc2)c2ccccc2)=C1Cl (stereo unspecified) ?
Output: > 100 µM (inactive)

Task: Requested read-out: GI50. Entry: O=C(O)C[C@H]1CCCCC12CCOC2=O (stereo partly specified)
Output: > 100 µM (inactive)

Task: Dear colleague, I am looking for the recorded GI50 of the following compound: `O=[N+]([O-])c1ccc2occ3c2c1CCC3`
Output: > 100 µM (inactive)
